Measured DNA Pol, listed per entry for reference.
target: P. falciparum apicoplast DNA polymerase (Pf-apPOL) (Plasmodium falciparum); experiment: Fluorescence-based high-throughput DNA polymerase assay (molecular beacon), primary screen and dose-response; type: biochemical; conditions: primary screen value, "DNA Pol"; 90 min, 10 µM
Returns: the value as a bare number; no unit string appended.

Sample answers from the record:
[
  {
    "MOLECULE": "Cc1cccc(NC(=O)Cn2ccc3c(=O)[nH]ccc32)c1C [Molecule 11, O=C(Cn1ccc2c1cc[nH]c2=O)Nc1cccc(c1C)C]",
    "MEASUREMENT_TYPE": "DNA Pol",
    "ENDPOINT_RESULT": 54
  },
  {
    "MOLECULE": "Cc1ccc(NC(=O)Cn2ccc3c(=O)[nH]ccc32)c(C)c1",
    "MEASUREMENT_TYPE": "DNA Pol",
    "ENDPOINT_RESULT": 21
  },
  {
    "MOLECULE": "O=C1Nc2ccc(I)cc2C1=Cc1cc(Br)c(O)c(Br)c1",
    "MEASUREMENT_TYPE": "DNA Pol",
    "ENDPOINT_RESULT": 52
  },
  {
    "MOLECULE": "COc1ccccc1C1CC(=O)Oc2cc3c(cc21)OCO3 (centres unmarked)",
    "MEASUREMENT_TYPE": "DNA Pol",
    "ENDPOINT_RESULT": 42
  }
]

Now, please, on to the next molecule.
Give the reported value of DNA Pol for this record: O=c1nc(/C=C/c2ccc(Br)cc2)oc2ccccc12
39

====

Biological target: P. falciparum apicoplast DNA polymerase (Pf-apPOL) (Plasmodium falciparum, UniProt Q8ILY1)
Sequence (Q8ILY1 entry or part of it): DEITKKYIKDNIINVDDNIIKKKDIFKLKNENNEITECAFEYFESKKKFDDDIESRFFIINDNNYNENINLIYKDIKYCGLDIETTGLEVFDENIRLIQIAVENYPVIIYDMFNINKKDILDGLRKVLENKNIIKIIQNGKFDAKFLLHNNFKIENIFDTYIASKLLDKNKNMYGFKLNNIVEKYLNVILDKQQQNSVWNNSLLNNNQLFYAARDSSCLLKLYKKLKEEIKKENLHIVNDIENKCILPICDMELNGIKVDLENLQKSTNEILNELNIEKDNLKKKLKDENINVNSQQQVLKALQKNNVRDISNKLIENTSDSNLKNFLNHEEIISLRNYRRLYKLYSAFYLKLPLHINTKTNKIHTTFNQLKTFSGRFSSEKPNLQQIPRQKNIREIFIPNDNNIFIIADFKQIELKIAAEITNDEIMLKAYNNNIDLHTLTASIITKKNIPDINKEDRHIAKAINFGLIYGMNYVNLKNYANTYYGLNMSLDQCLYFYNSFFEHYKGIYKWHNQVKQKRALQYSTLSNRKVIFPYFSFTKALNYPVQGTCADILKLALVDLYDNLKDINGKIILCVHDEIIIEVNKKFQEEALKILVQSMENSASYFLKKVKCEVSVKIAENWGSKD
Experiment: Fluorescence-based high-throughput DNA polymerase assay (molecular beacon), primary screen and dose-response;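 as to % inhibition Apol 40': compound concentration given in µM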
Format: biochemical
Details: DRC-2; 40'; concentration 40
Source text: The HT assay employs a molecular beacon, a stem-loop DNA template with a Cy3 dye and the Black Hole Quencher on the 3′ and 5′ ends of the DNA, respectively. Pf-apPOL concentration is based on a calculated absorptivity of ε280 = 56750 M^−1 cm^−1. […] To identify apPOL inhibitors we utilised our previously developed high-throughput DNA polymerase assay. […] The assay accurately recapitulates the kinetic behaviour of apPOL, as measured through more conventional low-throughput gel-based assays. […]
MEASUREMENT_TYPE: % inhibition Apol 40' (%)
Response body: numeric value in %, unit text excluded.

[
  {
    "MOLECULE": "O=C(Cc1cc(=O)[nH]c(SCc2ccccc2)n1)Nc1ccc2c(c1)OCO2",
    "ASSAY_TARGET": "P. falciparum apicoplast DNA polymerase (Pf-apPOL) (Plasmodium falciparum, UniProt Q8ILY1)",
    "QUANTITY_UNIT": "%",
    "% inhibition Apol 40'": 55
  },
  {
    "MOLECULE": "O=C(Cn1ccc2c(=O)[nH]ccc21)Nc1cccc(Cl)c1 [Molecule 23, O=C(Cn1ccc2c1cc[nH]c2=O)Nc1cccc(c1)Cl]",
    "ASSAY_TARGET": "P. falciparum apicoplast DNA polymerase (Pf-apPOL) (Plasmodium falciparum, UniProt Q8ILY1)",
    "QUANTITY_UNIT": "%",
    "% inhibition Apol 40'": 60
  },
  {
    "MOLECULE": "Cc1cccc(-c2nnc3ccc(NS(=O)(=O)c4ccc(C)c(C)c4)nn23)c1",
    "ASSAY_TARGET": "P. falciparum apicoplast DNA polymerase (Pf-apPOL) (Plasmodium falciparum, UniProt Q8ILY1)",
    "QUANTITY_UNIT": "%",
    "% inhibition Apol 40'": 51
  },
  {
    "MOLECULE": "O=C(NCC1CCN(C2CCCC2)CC1)C(=O)NC1CCCC1",
    "ASSAY_TARGET": "P. falciparum apicoplast DNA polymerase (Pf-apPOL) (Plasmodium falciparum, UniProt Q8ILY1)",
    "QUANTITY_UNIT": "%",
    "% inhibition Apol 40'": 44
  },
  {
    "MOLECULE": "NC(=O)c1cc[n+](CC2=C(C(=O)[O-])N3C(=O)[C@@H](NC(=O)[C@@H](c4ccccc4)S(=O)(=O)[O-])[C@H]3SC2)cc1.[Na+]",
    "ASSAY_TARGET": "P. falciparum apicoplast DNA polymerase (Pf-apPOL) (Plasmodium falciparum, UniProt Q8ILY1)",
    "QUANTITY_UNIT": "%",
    "% inhibition Apol 40'": 76
  }
]

Read off the recorded % inhibition Apol 40' for O=C1c2ccccc2C(=O)N1Oc1ccc([N+](=O)[O-])c([N+](=O)[O-])c1
48

Consider the molecule Cc1nc(/N=N/c2ccc(C(=O)[O-])cc2)c(COP(=O)([O-])[O-])c(C=O)c1O.[Na+].[Na+].[Na+] and give its recorded % inhibition Apol 40'.
61

====

biological target: P. falciparum apicoplast DNA polymerase (Pf-apPOL) (Plasmodium falciparum, UniProt Q8ILY1); assay: Fluorescence-based high-throughput DNA polymerase assay (molecular beacon), primary screen and dose-response; assay type: biochemical; conditions: DRC-1; read at 90'; concentration 80
We begin with a simple list: items and their reported % inhibition Apol 90' 80.

Please review the entries below; each comes with its answer.
[
  {
    "COMPOUND": "Cc1ccc(N2CCC(NC(=O)Cc3cccs3)C2=O)cc1C (stereo not shown)",
    "ENDPOINT_RESULT": "61.4172%"
  },
  {
    "COMPOUND": "O=C(CCc1csc(NC(=O)Nc2ccccc2)n1)Nc1nc2ccccc2s1",
    "ENDPOINT_RESULT": "69.3927%"
  },
  {
    "COMPOUND": "O=C(c1ccccc1)N1CCc2c(nc3cc(-c4ccccc4)[nH]n3c2=O)C1",
    "ENDPOINT_RESULT": "72.6232%"
  }
]

Give % inhibition Apol 90' 80 for CC(=O)Nc1cc(C(=O)c2cccs2)nn(-c2ccc(Cl)cc2)c1=O
70.7976%

Answer with the recorded % inhibition Apol 90' 80 of Cc1nc(C)c2c(n1)N(CC1CCCCC1)C(=O)CC2 only.
56.5278%

Provide only the value of recorded % inhibition Apol 90' 80 for COc1ccc(/C=C/c2cc(C(=O)O)c3ccccc3n2)cc1
67.8921%

Item Cc1cccc(-c2noc(C(=O)NNC(=O)C(Cl)(Cl)Cl)n2)c1 : provide % inhibition Apol 90' 80
66.9528%

====

molecular target: P. falciparum apicoplast DNA polymerase (Pf-apPOL) (Plasmodium falciparum); experiment: Fluorescence-based high-throughput DNA polymerase assay (molecular beacon), primary screen and dose-response; format: biochemical; conditions: DRC-1; 10'; concentration 2.5
MEASUREMENT_TYPE: % inhibition Apo pol 10' (%)
A number alone suffices; assume %.

# example entries with known answers
[
  {
    "COMPOUND": "COc1ccc(NC(=O)Cn2ccc3c(=O)[nH]ccc32)cc1Cl [Molecule 10, COc1ccc(cc1Cl)NC(=O)Cn1ccc2c1cc[nH]c2=O]",
    "QUANTITY_UNIT": "%",
    "ENDPOINT_RESULT": 12.1098
  },
  {
    "COMPOUND": "CCOc1cccc2cc(C(=O)Nc3nnc(-c4ccno4)o3)oc12",
    "QUANTITY_UNIT": "%",
    "ENDPOINT_RESULT": 10.6274
  },
  {
    "COMPOUND": "Cc1cc(C)cc(-n2nc3c(c2NC(=O)c2ccco2)CSC3)c1",
    "QUANTITY_UNIT": "%",
    "ENDPOINT_RESULT": 8.0326
  },
  {
    "COMPOUND": "Cc1ccc2c(C(=O)NCCc3cccnc3)cc(NC(=O)C(C)C)cc2n1",
    "QUANTITY_UNIT": "%",
    "ENDPOINT_RESULT": 2.289
  },
  {
    "COMPOUND": "COc1cccc(Oc2c(C(F)(F)F)oc3cc(OC(=O)N(C)C)ccc3c2=O)c1",
    "QUANTITY_UNIT": "%",
    "ENDPOINT_RESULT": 6.553
  }
]

Report the value of % inhibition Apo pol 10' obtained on P. falciparum apicoplast DNA polymerase (Pf-apPOL) (Plasmodium falciparum) for Nc1c(S(=O)(=O)O)cc(Nc2ccccc2)c2c1C(=O)c1ccccc1C2=O .
39.3278

Look up P. falciparum apicoplast DNA polymerase (Pf-apPOL) (Plasmodium falciparum) data: % inhibition Apo pol 10' of O=C(Nc1nnc(-c2ccno2)o1)c1ccc2ncsc2c1 , then report it.
10.861

Give % inhibition Apo pol 10' for this entry on P. falciparum apicoplast DNA polymerase (Pf-apPOL) (Plasmodium falciparum): O=C(Cn1ccc2c(=O)[nH]ccc21)Nc1cc(F)ccc1F [Molecule 42, O=C(Cn1ccc2c1cc[nH]c2=O)Nc1cc(F)ccc1F]
-0.6304

Enter % inhibition Apo pol 10' (test system P. falciparum apicoplast DNA polymerase (Pf-apPOL) (Plasmodium falciparum)) for O=C1N/C(=N/c2ccccc2Cl)S/C1=C/c1ccc([N+](=O)[O-])o1
7.564

Tell me % inhibition Apo pol 10' of N#Cc1c(C2CCCCC2)nc(Sc2ccc(C(F)(F)F)cc2[N+](=O)[O-])[nH]c1=O when tested on P. falciparum apicoplast DNA polymerase (Pf-apPOL) (Plasmodium falciparum).
13.479

Fill in: % inhibition Apo pol 10' on P. falciparum apicoplast DNA polymerase (Pf-apPOL) (Plasmodium falciparum), entry Cl.NC(CO)C(=O)NNCc1ccc(O)c(O)c1O (stereo not drawn)
2.4672

Give reported % inhibition Apo pol 10' for CC1=NNC(=O)C1Oc1ccc(Cl)cc1Cl (stereo not drawn) (P. falciparum apicoplast DNA polymerase (Pf-apPOL) (Plasmodium falciparum))
8.365

Send back P. falciparum apicoplast DNA polymerase (Pf-apPOL) (Plasmodium falciparum) % inhibition Apo pol 10' of CN(C)S(=O)(=O)Oc1ccc(-c2noc(-c3ccc(Oc4cc(Cl)cc(Cl)c4)o3)n2)cc1 only.
3.819

Give P. falciparum apicoplast DNA polymerase (Pf-apPOL) (Plasmodium falciparum) % inhibition Apo pol 10' for the following compound: CCOC(=O)C(NCc1ccco1)(NC(=O)c1ccco1)C(F)(F)F (stereo not drawn)
-0.8683

// fetch % inhibition Apo pol 10' for O=C(O)c1cccc(N2N=C(C(F)(F)F)/C(=C/c3ccc(-c4ccccc4[N+](=O)[O-])o3)C2=O)c1 ; system: P. falciparum apicoplast DNA polymerase (Pf-apPOL) (Plasmodium falciparum)
26.1484

Fill in % inhibition Apo pol 10' for O=C(Nc1ncc([N+](=O)[O-])s1)c1ccc2c(c1)C(=O)N(N1C(=O)c3ccccc3C1=O)C2=O tested with P. falciparum apicoplast DNA polymerase (Pf-apPOL) (Plasmodium falciparum).
7.75

Look up and report measured % inhibition Apo pol 10' (P. falciparum apicoplast DNA polymerase (Pf-apPOL) (Plasmodium falciparum)) for the following compound: O=[N+]([O-])c1ccc(/C=C/c2ccc3ccccc3n2)o1
21.0135

Consider the compound COc1ccc(C(=O)N2CCc3c(nc4cc(-c5ccccc5Cl)[nH]n4c3=O)C2)cn1 tested on P. falciparum apicoplast DNA polymerase (Pf-apPOL) (Plasmodium falciparum); state its % inhibition Apo pol 10'.
0.687

Report the value of % inhibition Apo pol 10' obtained on P. falciparum apicoplast DNA polymerase (Pf-apPOL) (Plasmodium falciparum) for O=C(O)CC1=NN(c2cccc([N+](=O)[O-])c2)C(=O)C1 .
32.2581

Supply % inhibition Apo pol 10' measured with P. falciparum apicoplast DNA polymerase (Pf-apPOL) (Plasmodium falciparum) for COc1cc(/C=C2\S/C(=N/C(C)=O)NC2=O)cc(Br)c1OCC(=O)O .
4.866

Please report % inhibition Apo pol 10' with P. falciparum apicoplast DNA polymerase (Pf-apPOL) (Plasmodium falciparum) for item CC(C)(C)c1cc(C(=O)C(C#N)=NNc2cccc(Cl)c2)no1 .
10.7073
